Tested on: IPOHE (Ipomoea hederacea)
Assay Method Text: Preemergence herbicidal evaluation
Format: in vivo, (L.) Jacq.
Assay Setup: Rate 0.1250 kg/ha; rated 4-5 weeks after treatment
Each item that follows carries a reported Preemergence herbicidal rating IPOHE.
Could you keep your reply to the number by itself?

Molecule: C[C@@H]1C[C@H](C)OC(c2nsc3cc(F)c(-n4c(=O)cc(C(F)(F)F)n(C)c4=O)cc23)O1 (some centres unmarked)
Target Entity: IPOHE (Ipomoea hederacea)
Quantity: Preemergence herbicidal rating IPOHE
Reported Result: 9.0

Molecule: Cn1c(C(F)(F)F)cc(=O)n(-c2ccc3snc(-c4sccc4CBr)c3c2)c1=O
Target Entity: IPOHE (Ipomoea hederacea)
Quantity: Preemergence herbicidal rating IPOHE
Reported Result: 2.0

Molecule: Cn1c(C(F)(F)F)cc(=O)n(-c2ccc3snc(C4OCCO4)c3c2)c1=O
Target Entity: IPOHE (Ipomoea hederacea)
Quantity: Preemergence herbicidal rating IPOHE
Reported Result: 9.0

Q. Give Preemergence herbicidal rating IPOHE; test system IPOHE (Ipomoea hederacea); molecule C=CC1COC(c2nsc3ccc(-n4c(=O)cc(C(F)(F)F)n(C)c4=O)cc23)O1 (centres unmarked)
A. 9.0

Q. Report measured Preemergence herbicidal rating IPOHE on IPOHE (Ipomoea hederacea); entry: C[C@@H]1C[C@H](C)OC(c2nsc3ccc(-n4c(=O)cc(C(F)(F)F)n(C)c4=O)cc23)O1 (some centres unmarked)
A. 7.5

Q. State the measured Preemergence herbicidal rating IPOHE (IPOHE (Ipomoea hederacea)) of Cc1nn(-c2nsc3ccc(-n4c(=O)cc(C(F)(F)F)n(C)c4=O)cc23)c(C)c1C
A. 0.0

Q. Output reported Preemergence herbicidal rating IPOHE of the molecule Cn1c(C(F)(F)F)cc(=O)n(-c2ccc3snc(-c4ccco4)c3c2)c1=O on IPOHE (Ipomoea hederacea).
A. 0.0

Q. # return Preemergence herbicidal rating IPOHE of Cc1cccnc1-c1nsc2cc(F)c(-n3c(=O)cc(C(F)(F)F)n(C)c3=O)cc12 (system: IPOHE (Ipomoea hederacea))
A. 7.5

====

Collected Preemergence herbicidal rating AMBEL values appear next to each entry.
Tested on: AMBEL (Ambrosia artemisifolia)
Assay Method Text: Preemergence herbicidal evaluation
Format: in vivo, L.
Assay Setup: Rate 0.1250 kg/ha; rated 4-5 weeks after treatment

Example results:
Molecule: Cc1cccnc1-c1nsc2cc(F)c(-n3c(=O)cc(C(F)(F)F)n(C)c3=O)cc12 [Compound 44]
Preemergence herbicidal rating AMBEL: 9.0
--
Molecule: Cc1cccnc1-c1nsc2cc(F)c(N3C(=O)C4=C(CCCC4)C3=O)cc12 [Compound 46]
Preemergence herbicidal rating AMBEL: 6.0
--
Molecule: CC1CC(C)(C)OC(c2nsc3ccc(-n4c(=O)cc(C(F)(F)F)n(C)c4=O)cc23)O1 (centres unmarked) [Compound 55]
Preemergence herbicidal rating AMBEL: 9.0
--
Molecule: Cn1c(C(F)(F)F)cc(=O)n(-c2ccc3snc(-c4sccc4CBr)c3c2)c1=O [Compound 80]
Preemergence herbicidal rating AMBEL: 9.0
--
Molecule: Cn1c(C(F)(F)F)cc(=O)n(-c2ccc3snc(C4=NCCO4)c3c2)c1=O [Compound 75]
Preemergence herbicidal rating AMBEL: 3.0

Q. Determine from records and report Preemergence herbicidal rating AMBEL for COCC1COC(c2nsc3ccc(-n4c(=O)cc(C(F)(F)F)n(C)c4=O)cc23)O1 (centres unmarked) [Compound 64]
A. 9.0

Q. Indicate the recorded Preemergence herbicidal rating AMBEL value for this molecule: C[C@H]1OC(c2nsc3ccc(-n4c(=O)cc(C(F)(F)F)n(C)c4=O)cc23)O[C@@H]1C [Compound 48]
A. 9.0

Q. Supply reported Preemergence herbicidal rating AMBEL belonging to this molecule: CC1=CC(C)(C)OC(c2nsc3ccc(-n4c(=O)cc(C(F)(F)F)n(C)c4=O)cc23)C1 (centres unmarked) [Compound 65]
A. 9.0

Q. Give reported Preemergence herbicidal rating AMBEL value for Cn1c(C(F)(F)F)cc(=O)n(-c2ccc3snc(C4OC(C)(C)C(C)(C)O4)c3c2)c1=O [Compound 56]
A. 9.0

Q. Give the measured Preemergence herbicidal rating AMBEL for Cc1cc(C)nc(-c2nsc3ccc(-n4c(=O)cc(C(F)(F)F)n(C)c4=O)cc23)n1 [Compound 40]
A. 5.0

Q. Supply recorded Preemergence herbicidal rating AMBEL for Cn1c(C(F)(F)F)cc(=O)n(-c2ccc3snc(C4OCCO4)c3c2)c1=O [Compound 45] here.
A. 9.0

====

Test system: TRZAWR (Wheat, Winter, cv Riband)
Assay Method Text: Postemergence herbicidal evaluation
Assay type: in vivo, Triticum aestivum
Assay Setup: rate 0.0320 kg/ha
Quantity: Postemergence herbicidal rating, TRZAWR
# respond with the number and nothing more

Compound: Cn1c(C(F)(F)F)cc(=O)n(-c2ccc3snc(C4OCCCO4)c3c2)c1=O
Postemergence herbicidal rating, TRZAWR: 5.0
//
Compound: Cc1cccnc1-c1nsc2cc(F)c(-n3c(=O)cc(C(F)(F)F)n(C)c3=O)cc12
Postemergence herbicidal rating, TRZAWR: 4.0
//
Compound: CCOc1cc(OCC)nc(-c2nsc3ccc(-n4c(=O)cc(C(F)(F)F)n(C)c4=O)cc23)n1
Postemergence herbicidal rating, TRZAWR: 2.5
//
Compound: C[C@H]1OC(c2nsc3ccc(-n4c(=O)cc(C(F)(F)F)n(C)c4=O)cc23)O[C@@H]1C
Postemergence herbicidal rating, TRZAWR: 5.0
//
Compound: Cn1c(C(F)(F)F)cc(=O)n(-c2ccc3snc(C(SCCO)SCCO)c3c2)c1=O
Postemergence herbicidal rating, TRZAWR: 4.0
//
Compound: Cc1cscc1-c1nsc2ccc(-n3c(=O)cc(C(F)(F)F)n(C)c3=O)cc12
Postemergence herbicidal rating, TRZAWR: 3.5
//
Compound: Cc1nnc(-c2nsc3ccc(-n4c(=O)cc(C(F)(F)F)n(C)c4=O)cc23)s1
Postemergence herbicidal rating, TRZAWR: 3.0
//
Compound: COc1ccsc1-c1nsc2ccc(-n3c(=O)cc(C(F)(F)F)n(C)c3=O)cc12
Postemergence herbicidal rating, TRZAWR: 2.5

Q. Using TRZAWR (Wheat, Winter, cv Riband) as the test system, report measured Postemergence herbicidal rating, TRZAWR of Cc1ccn(-c2nsc3ccc(-n4c(=O)cc(C(F)(F)F)n(C)c4=O)cc23)n1 .
A. 3.5

Q. Send back TRZAWR (Wheat, Winter, cv Riband) Postemergence herbicidal rating, TRZAWR of Cn1c(C(F)(F)F)cc(=O)n(-c2ccc3snc(-c4cccs4)c3c2)c1=O only.
A. 2.5

Q. State measured Postemergence herbicidal rating, TRZAWR of the compound Cn1c(C(F)(F)F)cc(=O)n(-c2ccc3snc(-c4ccsc4)c3c2)c1=O with TRZAWR (Wheat, Winter, cv Riband).
A. 3.5

Q. Report its Postemergence herbicidal rating, TRZAWR with TRZAWR (Wheat, Winter, cv Riband) as the test system: Cn1c(C(F)(F)F)cc(=O)n(-c2ccc3snc(C4OCCS4)c3c2)c1=O (stereo not drawn)
A. 5.0

====

Test system: CYPIR (Cyperus iria)
Assay Method Text: Flooded paddy, preemergence weed control
Type: in vivo
Assay Setup: rate 0.1250 kg/ha, rated 3-4 weeks after treatment, 0-9 rating scale
Overview of reported herbicidal rating, CYPIR across a group of molecules:
Give only the figure.

Molecule: Cn1c(C(F)(F)F)cc(=O)n(-c2cc3c(-c4ccccn4)nsc3cc2F)c1=O
Quantity: herbicidal rating, CYPIR
Reported Result: 9.0

Q. State its herbicidal rating, CYPIR: Cn1c(C(F)(F)F)cc(=O)n(-c2ccc3snc(-c4sccc4CBr)c3c2)c1=O
A. 9.0

Q. For the molecule Cc1cccnc1-c1nsc2cc(F)c(-n3c(=O)cc(C(F)(F)F)n(C)c3=O)cc12 , report herbicidal rating, CYPIR.
A. 9.0

Q. Give a short answer stating reported herbicidal rating, CYPIR for Cn1c(C(F)(F)F)cc(=O)n(-c2ccc3snc(C4OCC(c5ccccc5)O4)c3c2)c1=O (centres unmarked) .
A. 9.0

Q. Quick one: give measured herbicidal rating, CYPIR for C[C@@H]1OC(c2nsc3ccc(-n4c(=O)cc(C(F)(F)F)n(C)c4=O)cc23)O[C@@H]1C (some centres unmarked)
A. 9.0

Q. Identify herbicidal rating, CYPIR associated with the molecule Cc1nn(-c2nsc3ccc(-n4c(=O)cc(C(F)(F)F)n(C)c4=O)cc23)c(C)c1C
A. 0.0

Q. Identify herbicidal rating, CYPIR associated with the molecule Cn1c(C(F)(F)F)cc(=O)n(-c2ccc3snc(-c4ccsc4)c3c2)c1=O
A. 9.0

Q. Let me know recorded herbicidal rating, CYPIR for Cn1ccnc1-c1nsc2ccc(-n3c(=O)cc(C(F)(F)F)n(C)c3=O)cc12 , thanks.
A. 7.0

Q. Note down herbicidal rating, CYPIR recorded for COC(=O)C(C)Oc1ccsc1-c1nsc2ccc(-n3c(=O)cc(C(F)(F)F)n(C)c3=O)cc12 (centres unmarked)
A. 9.0

====

Test system: CASOB (Cassia obtusifolia)
Assay Method Text: Preemergence herbicidal evaluation
Type: in vivo, L.
Assay Setup: Rate 0.0620 kg/ha; rated 4-5 weeks after treatment
Source text: Results of herbicide evaluation are expressed on a rating scale (0-9). The scale is based upon a visual observation of plant stand, vigor, malformation, size, chlorosis and overall plant appearance as compared with a control. […]
Cut-off 0.5 on Preemergence herbicidal rating CASOB, inclusive. At or above means Yes; below means No.

Known results for compounds:
Compound: Cn1c(C(F)(F)F)cc(=O)n(-c2ccc3snc(C4OCC(c5ccccc5)O4)c3c2)c1=O (stereo not drawn) [Compound 78]
Category: Yes
//
Compound: Cc1nn(-c2nsc3ccc(-n4c(=O)cc(C(F)(F)F)n(C)c4=O)cc23)c(C)c1C [Compound 49]
Category: No
//
Compound: Cc1cc(C)nc(-c2nsc3ccc(-n4c(=O)cc(C(F)(F)F)n(C)c4=O)cc23)n1 [Compound 40]
Category: Yes

Q. Record CC1CC(C)(C)OC(c2nsc3ccc(-n4c(=O)cc(C(F)(F)F)n(C)c4=O)cc23)O1 (stereo not drawn) [Compound 55] ; criterion: Preemergence herbicidal rating CASOB no lower than 0.5. Met?
A. Yes

Q. Check this compound for Preemergence herbicidal rating CASOB at or above 0.5: Cc1cnn(-c2nsc3ccc(-n4c(=O)cc(C(F)(F)F)n(C)c4=O)cc23)c1 [Compound 59]
A. No

Q. Reported Preemergence herbicidal rating CASOB reaches at least 0.5 for Cn1c(C(F)(F)F)cc(=O)n(-c2ccc3snc(-c4sccc4CBr)c3c2)c1=O [Compound 80] ?
A. No

Q. Quick check: does CCOc1cc(OCC)nc(-c2nsc3ccc(-n4c(=O)cc(C(F)(F)F)n(C)c4=O)cc23)n1 [Compound 43] have Preemergence herbicidal rating CASOB greater than or equal to 0.5?
A. No

Q. Check the entry COCC1COC(c2nsc3ccc(-n4c(=O)cc(C(F)(F)F)n(C)c4=O)cc23)O1 (stereo not drawn) [Compound 64] : does Preemergence herbicidal rating CASOB equal or exceed 0.5?
A. Yes
